# study.system: serotonin (5-HT) receptor (Cavia porcellus, UniProt A0A286Y537)
# Construct: 5-HT-induced contraction
# Sequence (A0A286Y537 1-470): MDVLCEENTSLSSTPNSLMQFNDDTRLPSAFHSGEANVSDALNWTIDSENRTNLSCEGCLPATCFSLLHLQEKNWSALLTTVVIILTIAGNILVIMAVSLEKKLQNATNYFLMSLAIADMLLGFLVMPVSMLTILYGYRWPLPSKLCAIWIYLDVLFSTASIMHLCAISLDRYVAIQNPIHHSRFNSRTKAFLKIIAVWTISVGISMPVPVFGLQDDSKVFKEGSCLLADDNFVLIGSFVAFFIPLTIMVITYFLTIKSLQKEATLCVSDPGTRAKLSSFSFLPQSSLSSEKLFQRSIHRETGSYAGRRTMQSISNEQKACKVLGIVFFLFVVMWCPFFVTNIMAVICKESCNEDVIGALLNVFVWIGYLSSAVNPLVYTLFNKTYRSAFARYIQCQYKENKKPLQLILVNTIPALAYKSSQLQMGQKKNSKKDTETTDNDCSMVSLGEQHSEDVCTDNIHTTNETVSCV
# test.protocol: Anti-serotonin action (anti-5-HT action): 5-HT-induced contraction of isolated superior mesenteric artery (helical strip)
# Design: species or system Hartley male guinea pig
# recorded.conditions: test drug 10^-7 M; contraction induced by 10^-5 M serotonin taken as 100%; guinea pig superior mesenteric artery; 37° C; compounds marked * tested as hydrochloride; read-out: Anti 5-HT action (% of Control), 10^-7 M
attribute.measured: remaining activity at 0.1 µM (%)
Kindly answer with a numeric value in %, unit omitted.

Past entries and their recorded results:
Cn1ccc2c1C(=O)N(CCCN1CCN(c3ccccc3)CC1)CCC2=O :: 52.8
Cn1ccc2c1C(=O)N(CCCN1CCN(c3ccccc3)CC1)CCC2O (stereo not drawn) :: 34.3

Attention now shifts to the item below.
Query: Look up remaining activity at 0.1 µM of `Cn1ccc2c1C(=O)N(CCCN1CCN(c3ccccc3)CC1)CCC2=NO` and report it.
Response: 11.2

----------
Below: a set of entries, each annotated with reported remaining activity at 1 µM.
# study.system: serotonin (5-HT) receptor (Cavia porcellus)
# Construct: 5-HT-induced contraction
# test.protocol: Anti-serotonin action (anti-5-HT action): 5-HT-induced contraction of isolated superior mesenteric artery (helical strip)
# Set-up: species or system Hartley male guinea pig
# recorded.conditions: test drug 10^-6 M; contraction induced by 10^-5 M serotonin taken as 100%; guinea pig superior mesenteric artery; 37° C; compounds marked * tested as hydrochloride; read-out: Anti 5-HT action (% of Control), 10^-6 M
Kindly answer with a numeric value in %, unit omitted.

Past entries and their recorded results:
O=C1c2c(ccn2Cc2ccccc2)C(=NO)CCN1CCCN1CCN(c2ccccc2)CC1 :: 5.1
Cn1ccc2c1C(=O)N(CCCN1CCN(c3ccccc3)CC1)CCC2=O :: 16.3
CON=C1CCN(CCCN2CCN(c3ccccc3)CC2)C(=O)c2c1ccn2C :: 12.8

Query: Look up remaining activity at 1 µM of `Cn1ccc2c1C(=O)N(CCCN1CCC(C(=O)c3ccc(F)cc3)CC1)CCC2=NO` and report it.
Response: 8.7

Query: Look up remaining activity at 1 µM of `CCn1ccc2c1C(=O)N(CCCN1CCN(c3ccccc3)CC1)CCC2=O` and report it.
Response: 12.4

Query: Look up remaining activity at 1 µM of Cn1ccc2c1C(=O)N(CCCN1CCN(c3ccccc3)CC1)CCC2O (stereo not drawn) and report it.
Response: 8.7

Query: Look up remaining activity at 1 µM of `Cn1ccc2c1C(=O)N(CCCN1CCC(c3ccccc3)CC1)CCC2=NO` and report it.
Response: 9.9

Query: Look up remaining activity at 1 µM of `COc1cccc(N2CCN(CCCN3CCC(=NO)c4ccn(C)c4C3=O)CC2)c1` and report it.
Response: 18.4

Query: Look up remaining activity at 1 µM of Cn1ccc2c1C(=O)N(CCCN1CCN(c3ccc(F)cc3)CC1)CCC2O (stereo not drawn) and report it.
Response: 12.5

----------
Below: a set of entries, each annotated with reported Anti α1 action (% of Control), 10^-7 M.
# Test system: α1 receptor
# test.protocol: Anti-α1 action: norepinephrine (NE)-induced tonic contraction of isolated thoracic aorta (helical strip)
# Set-up: species or system Hartley male guinea pig
# recorded.conditions: test drug 10^-7 M; contraction induced by 10^-5 M norepinephrine taken as 100%; guinea pig thoracic aorta; 37° C; compounds marked * tested as hydrochloride; 0.1 µM

Past entries and their recorded results:
CCn1ccc2c1C(=O)N(CCCN1CCN(c3ccccc3)CC1)CCC2=NO :: 81.9 % of Control
Cn1ccc2c1C(=O)N(CCCN1CCN(c3ccccc3)CC1)CCC2=NO :: 23.8 % of Control

Attention now shifts to the item below.
Query: Look up Anti α1 action (% of Control), 10^-7 M of `Cn1ccc2c1C(=O)N(CCCN1CCN(c3ccccc3)CC1)CCC2=O` and report it.
Response: 85.5 % of Control

----------
# study.system: serotonin (5-HT) receptor (Cavia porcellus, UniProt A0A286Y537)
# Construct: 5-HT-induced contraction
# test.protocol: Anti-serotonin action (anti-5-HT action): 5-HT-induced contraction of isolated superior mesenteric artery (helical strip)
# Set-up: species or system Hartley male guinea pig
# recorded.conditions: test drug 10^-7 M; contraction induced by 10^-5 M serotonin taken as 100%; guinea pig superior mesenteric artery; 37° C; compounds marked * tested as hydrochloride; read-out: Anti 5-HT action (% of Control), 10^-7 M
With a cut-off of 40%, any remaining activity at 0.1 µM strictly below it is called Fulfilled; any remaining activity at 0.1 µM meeting it or above is called Not fulfilled.

Consider the following illustrative entries.
O=C1c2c(ccn2Cc2ccccc2)C(=NO)CCN1CCCN1CCN(c2ccccc2)CC1 :: Not fulfilled
Cn1ccc2c1C(=O)N(CCCN1CCN(c3ccc(F)cc3)CC1)CCC2O (centres unmarked) :: Fulfilled
CCn1ccc2c1C(=O)N(CCCN1CCN(c3ccccc3)CC1)CCC2=O :: Not fulfilled
CON=C1CCN(CCCN2CCN(c3ccccc3)CC2)C(=O)c2c1ccn2C :: Not fulfilled
Cn1ccc2c1C(=O)N(CCCN1CCC(C(=O)c3ccc(F)cc3)CC1)CCC2=NO :: Not fulfilled

Query: Please state whether remaining activity at 0.1 µM is below 40% for `COc1cccc(N2CCN(CCCN3CCC(=NO)c4ccn(C)c4C3=O)CC2)c1`
Response: Not fulfilled

Query: Please state whether remaining activity at 0.1 µM is below 40% for `CCn1ccc2c1C(=O)N(CCCN1CCN(c3ccccc3)CC1)CCC2=NO`
Response: Fulfilled

----------
# System: α1 receptor
# test.protocol: Anti-α1 action: norepinephrine (NE)-induced tonic contraction of isolated thoracic aorta (helical strip)
# Design: species or system Hartley male guinea pig
# recorded.conditions: test drug 10^-7 M; contraction induced by 10^-5 M norepinephrine taken as 100%; guinea pig thoracic aorta; 37° C; compounds marked * tested as hydrochloride; 0.1 µM
Below: a set of entries, each annotated with reported Anti α1 action (% of Control), 10^-7 M.

Cn1ccc2c1C(=O)N(CCCN1CCN(c3ccc(F)cc3)CC1)CCC2O (centres unmarked) :: 94.5 % of Control
Cn1ccc2c1C(=O)N(CCCN1CCC(c3ccccc3)CC1)CCC2=NO :: 62.6 % of Control
O=C1c2c(ccn2Cc2ccccc2)C(=NO)CCN1CCCN1CCN(c2ccccc2)CC1 :: 60.5 % of Control
Cn1ccc2c1C(=O)N(CCCN1CCN(c3ccccc3)CC1)CCC2O (centres unmarked) :: 80.5 % of Control
COc1cccc(N2CCN(CCCN3CCC(=NO)c4ccn(C)c4C3=O)CC2)c1 :: 38.8 % of Control
CCn1ccc2c1C(=O)N(CCCN1CCN(c3ccccc3)CC1)CCC2=O :: 90.1 % of Control
Cn1ccc2c1C(=O)N(CCCN1CCC(C(=O)c3ccc(F)cc3)CC1)CCC2=NO :: 37.9 % of Control

Attention now shifts to the item below.
Query: Look up Anti α1 action (% of Control), 10^-7 M of `CON=C1CCN(CCCN2CCN(c3ccccc3)CC2)C(=O)c2c1ccn2C` and report it.
Response: 28.0 % of Control
